- Tested on: MCF7
- Assay notes: Cytotoxicity against Homo sapiens (human) MCF7 cells assessed as cell viability at 3.125 ug/ml after 48 hr by MTT assay
- Type: functional
- Applied conditions: MCF7, 48 h, read-out: Activity
Metric name: viability at 3.125 µg/mL (%)
Please respond with the number in % and leave the unit unwritten.

Query block: State viability at 3.125 µg/mL on MCF7. Entry: CC[C@]1(O)C[C@@H]2CN(CCc3c([nH]c4ccccc34)[C@@](C(=O)OC)(c3cc4c(cc3OC)N(C)[C@H]3[C@@](O)(C(=O)OC)[C@H](OC(C)=O)[C@]5(CC)C=CCN6CC[C@]43[C@@H]65)C2)C1 [VINBLASTINE]
Result block: 60.4

Query block: System MCF7. Read-out viability at 3.125 µg/mL. Item N#CC1=C(N)Oc2c(ccc3ccc(/C=C/c4ccc(Br)cc4)nc23)C1c1ccc(Cl)cc1 (stereo not given) . Report value.
Result block: 73

Query block: Find the measured viability at 3.125 µg/mL of CCOC(=O)C1=C(N)Oc2c(ccc3ccc(/C=C/c4ccc(Cl)cc4)nc23)C1c1ccc(Br)cc1 (stereo not given) with MCF7 as test system.
Result block: 76

Query block: Find viability at 3.125 µg/mL for CCOC(=O)C1=C(N)Oc2c(ccc3ccc(/C=C/c4ccc(F)cc4)nc23)C1c1ccc(Cl)cc1 (stereo not given) on MCF7 and write it down.
Result block: 92.1

Query block: Check MCF7 data and give viability at 3.125 µg/mL for N#CC1=C(N)Oc2c(ccc3ccc(/C=C/c4ccc(Cl)cc4)nc23)C1c1ccc(Br)cc1 (stereo not given) .
Result block: 83.1
